test system: Acinetobacter baumannii; experiment: Antibacterial activity against multidrug-resistant Acinetobacter baumannii 06-74 isolate by CLSI microdilution test; type: functional
Assay readout: MIC

CC(C)(O/N=C(\C(=O)N[C@@H]1C(=O)N2C(C(=O)[O-])=C(C[n+]3ccccc3)CS[C@H]12)c1csc(N)n1)C(=O)O
≥ 64 µg/mL
C[C@@H](O)[C@H]1C(=O)N2C(C(=O)O)=C(S[C@@H]3CN[C@H](C(=O)N(C)C)C3)[C@H](C)[C@H]12
1 µg/mL

In the following, a different compound is considered.
Noted for C[C@H]1COc2c(N3CCN(C)CC3)c(F)cc3c(=O)c(C(=O)O)cn1c23.C[C@H]1COc2c(N3CCN(C)CC3)c(F)cc3c(=O)c(C(=O)O)cn1c23.O : its MIC reads ≥ 8 µg/mL

# credit: ChEMBL document CHEMBL1143418
